test: CREB reporter modulators under forskolin, primary screen, cell-based, PC12, CRE-LacZ reporter, forskolin-stimulated (AID 1146); details: luminescence, 4.5 h, higher = more signal, called active from +8 up or from −8 down;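 further: PC12 cells with 6xCRE LacZ reporter stimulated by forskolin 10 µM; beta-galactosidase reporter signal reflecting CREB driven transcription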
Outcome: condition met for z-score of at least -0.1; condition not met for anything lower.

Would you please look over these solved cases?
{"columns": ["compound", "category.label"],
 "data": [
  ["C=CCOC(=O)[C@@H]1[C@H]2C(=O)O[C@H](c3ccccc3)[C@H](c3ccccc3)N2[C@H](c2ccc(OCCOC(=O)[C@@H]3C[C@@H]4C(=O)NCC(=O)N4[C@@H]3c3ccc(O)cc3)cc2)[C@@]12C(=O)Nc1ccc(I)cc12", "condition not met"],
  ["COc1ccc(/C=C/C=O)cc1", "condition met"],
  ["COc1ccccc1CN1C(=O)c2ccccc2[C@@H](C(=O)NC2CC2)[C@@H]1c1ccc(CO)cc1", "condition not met"],
  ["O=C1N[C@@H](Cc2ccccc2)C(=O)N2[C@@H]1C[C@@H](C(=O)O)[C@H]2c1cccc(OCCO)c1", "condition met"],
  ["NC(=O)NCC#Cc1ccc2c(c1)[C@]1(C(=O)N2)[C@H](c2ccc(O)cc2)N2[C@H](c3ccccc3)[C@H](c3ccccc3)OC(=O)[C@H]2[C@@H]1C(=O)O", "condition not met"],
  ["C=C[C@H](CO[Si](CC)(CC)CC)N(Cc1ccc(OC(C)=O)c(OC)c1)S(=O)(=O)c1ccc(Br)cc1", "condition met"],
  ["CN1C(=O)C2C=CC(C(O)C3CC=CCC3)N(N(c3ccccc3)c3ccccc3)C2C1=O (stereo unspecified)", "condition met"],
  ["C=C(CCCC)/C(=C/C[C@@H](OC(=O)c1ccncc1)c1ccc(OCCO)cc1)c1cc(C(=O)OC)ccc1OC", "condition met"],
  ["COCCOC(=O)N1C(=O)[C@@]2(c3ccccc31)[C@H](c1ccccc1OCCO)N1[C@H](c3ccccc3)[C@H](c3ccccc3)OC(=O)[C@H]1[C@@H]2C(=O)N1CCN(c2ncccn2)CC1", "condition met"],
  ["O=C(CS)NCCCCCCNC(=O)[C@@H]1C[C@@H]2C(=O)NCC(=O)N2[C@@H]1c1cccc(OCCO)c1", "condition not met"]
]}

## Input Hello, I need to know if COc1cc(COC(C)=O)ccc1OC(C)=O has measured z-score not below -0.1. Thanks!
## Output condition met

## Input Check the entry Cc1ccc(S[C@]2(C(=O)O)CC(=O)N(C(C)C)[C@@H]2c2ccc(CO)cc2I)cc1 : does z-score equal or exceed -0.1?
## Output condition met

## Input Reported z-score reaches at least -0.1 for CCCCC(CC)C(O)C1C=CC2C(=O)N(Cc3ccccc3)C(=O)C2N1n1cnnc1 (stereo unspecified) ?
## Output condition met

## Input Identify whether the reported z-score of the following compound is -0.1 or greater: CC[C@@H]1C=C(C(=O)O)[C@H](c2ccc(Br)cc2)N1S(=O)(=O)c1ccc(C)cc1
## Output condition met

Origin of the recorded values: PubChem BioAssay
